system: NCI-H23; assay: NCI tumour cell line growth inhibition, 48 h
The source made the active and inactive calls. Rule as the data show it: active = GI50 up to about 1.1 µM and inactive = higher.
Outcome Measure: GI50

These recorded examples may help you get a feel for the data.
COc1cc(C2SCC(=O)N2c2ccccn2)cc(OC)c1OC (stereo unspecified) ... > 100 µM (inactive)
O=S(=O)(O)c1ccc(/N=N/c2ccc(/N=N/c3c(O)ccc4ccccc34)cc2)cc1 ... > 94.2 µM (inactive)
COc1ccc(/C=C2\CCC(CNc3ccc(S(N)(=O)=O)cc3)C2=O)cc1 (stereo unspecified) ... 19.7 µM (inactive)

The recorded GI50 for entry "Brc1ccc(/C=N/C23CC4CC(CC(C4)C2)C3)cc1" equals > 100 µM (inactive)

The recorded GI50 for entry "CC(C)(C)c1cc(Cc2ccc([N+](C)(C)C)cc2)c(O)c(C(C)(C)C)c1" equals 17.7 µM (inactive)

The recorded GI50 for entry "O=C(O)Cc1c[nH]c2ccc(F)cc12" equals > 100 µM (inactive)
